Numbers sourced from patent US20180312587A1.

Would you mind telling me the reported pEC50 of each entry?
molecular target: T1, human SIRPγ (human, UniProt Q9P1W8 29-387); test: CELISA, CHO-K1 transfectants; extrapolated
T1 construct: on transfected CHO-K1 cells; also called hSIRPγ
T1 sequence (Q9P1W8 29-387 limits assumed): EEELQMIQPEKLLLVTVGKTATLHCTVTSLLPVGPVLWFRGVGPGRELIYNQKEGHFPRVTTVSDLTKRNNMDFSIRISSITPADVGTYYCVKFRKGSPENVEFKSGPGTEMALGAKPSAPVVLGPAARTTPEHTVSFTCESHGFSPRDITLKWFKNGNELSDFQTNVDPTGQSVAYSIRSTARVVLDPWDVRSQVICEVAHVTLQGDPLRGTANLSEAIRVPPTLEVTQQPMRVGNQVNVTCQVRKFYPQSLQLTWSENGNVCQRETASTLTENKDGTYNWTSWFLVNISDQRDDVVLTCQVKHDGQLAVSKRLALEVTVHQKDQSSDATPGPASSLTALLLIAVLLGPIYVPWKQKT
Answers are plain numbers, as −log10 of the molar value.

These recorded examples may help you get a feel for the data.
[[record]]
binder = "hSIRPα.50A.H3L2 (antibody, human IgG4 S228P, kappa, V domains shown, human IgG4 S228P, kappa; also called hSIRPα.50H3L2) VH: EVQLVQSGAEVVKPGASVMISCKASGFTFTNYYIHWVRQRPGQGLEWIGWIYPGNVNTKYNEKFKARVIMTADKSTSTVYMQLSSLTSEDTAVYYCARPTIIATDFDVWGQGTLVTVSS VL: DIVMTQSPSSLSASVGDRVTITCKASQGVGTAVGWYQQKPGKAPKLLIYWASTRHTGVPDRFSGSGSGTDFTLTISNLQPEDFADYYCQQYSTYPFTFGGGTKVEIKR"
experimental_result = 8.82

[[record]]
binder = "hSIRPα.50A.H5L5 (antibody, human IgG4 S228P, kappa, V domains shown, human IgG4 S228P, kappa; also called hSIRPα.50H5L5) VH: EVQLVQSGAEVVKPGASVKVSCKASGFTFTNYYIHWVRQAPEQGLEWIGWIYPGNVNTKYNEKFKARVTMTADKSTSTAYMELSSLRSDDMAVYYCARPTIIATDFDVWGQGTTVTVSS VL: DIVLTQSPSFLSASVGDRVTITCKASQGVGTAVGWYQQKPGKSPKLLIYWASTRHTGVPDRFSGSGSGTEFTLTISNLQPEDFAAYYCQQYSTYPFTFGGGTKLEIKR"
experimental_result = 9.06


Pending binder:
## Input Return reported pEC50. Input binder: hSIRPα.50A.H3L4 (antibody, human IgG4 S228P, kappa, V domains shown, human IgG4 S228P, kappa; also called hSIRPα.50H3L4) VH: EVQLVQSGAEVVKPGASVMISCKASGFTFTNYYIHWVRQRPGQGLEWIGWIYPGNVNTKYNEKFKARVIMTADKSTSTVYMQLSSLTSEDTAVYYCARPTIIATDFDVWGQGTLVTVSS VL: DIQMTQSPSSLSASVGDRVTITCKASQGVGTAVGWYQKKPGKVPKLLIYWASTRHTGVPDRFSGSGSGTDFTLTINGLQPEDVATYYCQQYSTYPFTFGGGTKLEIKR
## Output 8.29
